Let's go through some recorded pKi values for Carboxypeptidase A4 (Homo sapiens, UniProt Q9UI42) together.
pKi: −log10 of the molar value.
Readout Label: pKi

C[C@H](NC(=O)[C@H](Cc1ccc(O)cc1)NC(=O)COCCOCCNC(=O)CCOCCOCCOCCNC(=O)CCc1ccc(C(=C\C=C2\N(CCCCS(=O)(=O)O)c3ccc4c(S(=O)(=O)[O-])cc(S(=O)(=O)O)cc4c3C2(C)C)/C=C/C2=[N+](CCCCS(=O)(=O)O)c3ccc4c(S(=O)(=O)O)cc(S(=O)(=O)O)cc4c3C2(C)C)cc1)P(=O)(O)C[C@@H](CCc1ccccc1)C(=O)O ... 8.24

A = CC(=O)N[C@@H](CCCCN)C(=O)N[C@@H](C)P(=O)(O)C[C@@H](CCc1ccccc1)C(=O)O
B = CC(=O)N1CCC[C@H]1C(=O)N[C@@H](C)P(=O)(O)C[C@@H](CCc1ccccc1)C(=O)O
C = CC(=O)N[C@@H](CO)C(=O)N[C@@H](C)P(=O)(O)C[C@@H](CCc1ccccc1)C(=O)O
## Input Sequence the entries by pKi, beginning with the highest number. A complete answer lists every label in the requested sequence.
## Output B, A, C
(B: 8.12, A: 7.60, C: 7.22)

----------
- Target Of Assay: Carboxypeptidase A1 (Homo sapiens, UniProt P15085)
- Sequence (P15085 whole entry): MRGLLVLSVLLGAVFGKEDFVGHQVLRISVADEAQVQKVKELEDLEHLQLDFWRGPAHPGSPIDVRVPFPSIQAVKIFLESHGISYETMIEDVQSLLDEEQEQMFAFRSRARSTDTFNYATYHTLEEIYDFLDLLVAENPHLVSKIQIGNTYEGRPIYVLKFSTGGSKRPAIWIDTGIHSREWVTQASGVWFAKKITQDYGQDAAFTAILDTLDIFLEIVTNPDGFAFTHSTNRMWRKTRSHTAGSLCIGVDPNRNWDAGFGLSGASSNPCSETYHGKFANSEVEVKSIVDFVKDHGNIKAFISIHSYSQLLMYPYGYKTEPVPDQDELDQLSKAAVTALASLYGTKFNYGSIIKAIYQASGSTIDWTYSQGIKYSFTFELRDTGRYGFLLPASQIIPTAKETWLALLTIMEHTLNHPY
- Protocol Text: Inhibition of human CPA1 using AAFP as substrate preincubated for 45 mins to 2 hrs measured at 30 sec intervals for 15 mins by UV/vis-spectrophotometry
Readout Label: Ki (nM)

C[C@H](NC(=O)[C@H](Cc1ccc(O)cc1)NC(=O)COCCOCCN)P(=O)(O)C[C@@H](CCc1ccccc1)C(=O)O ... 0.3

I = CC(=O)N[C@@H](CCCCN)C(=O)N[C@@H](C)P(=O)(O)C[C@@H](CCc1ccccc1)C(=O)O
II = CC(=O)N[C@@H](CO)C(=O)N[C@@H](C)P(=O)(O)C[C@@H](CCc1ccccc1)C(=O)O
III = CC(=O)N[C@@H](CC(C)C)C(=O)N[C@@H](Cc1ccccc1)P(=O)(O)C[C@@H](Cc1ccccc1)C(=O)O
## Input Sequence the entries by Ki, beginning with the highest number. A complete answer lists every label in the requested sequence.
## Output II, I, III

----------
- Target Of Assay: Carboxypeptidase A1 (Homo sapiens, UniProt P15085)
- Protocol Text: Inhibition of human CPA1 using AAFP as substrate measured at pre-steady state by spectrophotometry
Readout Label: Ki (pM)

C[C@H](NC(=O)[C@H](Cc1ccc(O)cc1)NC(=O)COCCOCCNC(=O)CCOCCOCCOCCNC(=O)CCc1ccc(C(=C\C=C2\N(CCCCS(=O)(=O)O)c3ccc4c(S(=O)(=O)[O-])cc(S(=O)(=O)O)cc4c3C2(C)C)/C=C/C2=[N+](CCCCS(=O)(=O)O)c3ccc4c(S(=O)(=O)O)cc(S(=O)(=O)O)cc4c3C2(C)C)cc1)P(=O)(O)C[C@@H](CCc1ccccc1)C(=O)O ... 70
CC(=O)N[C@@H](CC(C)C)C(=O)N[C@@H](C)P(=O)(O)C[C@@H](CCc1ccccc1)C(=O)O ... 140
CC(=O)N[C@@H](Cc1ccc(O)cc1)C(=O)N[C@@H](C)P(=O)(O)C[C@@H](CCc1ccccc1)C(=O)O ... 160
CC(=O)NCCOCCOCC(=O)N[C@@H](Cc1ccc(O)cc1)C(=O)N[C@@H](C)P(=O)(O)C[C@@H](CCc1ccccc1)C(=O)O ... 160
